From: patent US20090035322A1

Target: T1, human CD20 (human, UniProt P11836 1-297)
T1 sequence: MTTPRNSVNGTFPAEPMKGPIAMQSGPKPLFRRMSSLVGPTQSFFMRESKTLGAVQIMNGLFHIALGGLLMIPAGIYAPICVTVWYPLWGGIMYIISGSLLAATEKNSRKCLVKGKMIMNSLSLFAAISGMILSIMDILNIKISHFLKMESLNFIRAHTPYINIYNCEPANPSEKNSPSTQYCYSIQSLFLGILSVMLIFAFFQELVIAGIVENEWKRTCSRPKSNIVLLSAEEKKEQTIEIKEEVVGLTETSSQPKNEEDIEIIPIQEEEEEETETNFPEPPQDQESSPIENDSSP
Test: cell-based or functional assay
measure.name: % Cytotoxicity (CDC, Daudi), 1 hour (%)
The figure you give is taken to be in %; do not add the unit.

Q) Return reported % Cytotoxicity (CDC, Daudi), 1 hour; argument: 3H7-6 (antibody, V domains shown, Fully human IgG, constant region not specified; also called 3H7-6N) VH: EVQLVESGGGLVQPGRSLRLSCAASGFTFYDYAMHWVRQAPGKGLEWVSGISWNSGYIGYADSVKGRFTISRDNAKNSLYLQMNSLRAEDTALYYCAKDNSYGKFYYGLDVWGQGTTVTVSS VL: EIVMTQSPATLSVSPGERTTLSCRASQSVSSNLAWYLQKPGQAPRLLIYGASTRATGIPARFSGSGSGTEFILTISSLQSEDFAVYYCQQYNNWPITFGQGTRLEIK
A) 94
